# Tested on: Rattus norvegicus
# procedure.details: Antiinflammatory activity against carrageenan-induced paw edema in po dosed rat administered 1 hr before carrageenan challenge assessed after 2 hrs
# Format: functional
assay.readout: inhibition (INH) (%)
Please state the figure in %; there is no need to write the unit.

Identify the measured inhibition (INH) of Clc1ccc(OCc2nn3c(COc4ccc(Cl)cc4Cl)nnc3s2)c(Cl)c1 for Rattus norvegicus.
48.4

Proceed to Clc1ccc(OCc2nnc3sc(-c4ccco4)nn23)c(Cl)c1
54.62

Proceed to O=[N+]([O-])c1ccc(-c2nn3c(COc4ccc(Cl)cc4Cl)nnc3s2)c([N+](=O)[O-])c1
66.06

Proceed to Nn1c(S)nnc1COc1ccc(Cl)cc1Cl
60.3

Proceed to Clc1ccc(OCc2nnc3n2N=C(c2cc4ccccc4o2)/C(=C/c2cn(-c4ccccc4)nc2-c2cc4ccccc4o2)S3)c(Cl)c1
41.32

Proceed to COc1ccc(-c2nn3c(COc4ccc(Cl)cc4Cl)nnc3s2)cc1
46.22

Proceed to Clc1ccc(OCc2nnc3snnn23)c(Cl)c1
94.8

Proceed to COc1ccc2c(c1)c(CC(=O)O)c(C)n2C(=O)c1ccc(Cl)cc1 [INDOMETHACIN]
20.97

Proceed to Clc1ccc(OCc2nnc3n2N=C(c2ccccc2)CS3)c(Cl)c1
45.62
